Cited source for all entries: patent US20260226038A1

- System: Staphylococcus aureus
- assay_method_text: MIC test, microdilution method (CLSI)
- Format: cell-based
- assay_context: ATCC strains of Staphylococcus aureus; 18-20 h at 37° C.; growth inhibited ≥80% compared to growth control
reported_metric: MIC (µg/mL)
// return numeric value only (unit: µg/mL, not printed)

q: Using known records, supply MIC for COc1ccccc1NC(=O)Cc1noc(CN2C(=O)C(=O)N(CC3CC3)C2=O)n1 [Example 27]
a: 4

q: Using known records, supply MIC for COc1ccccc1N(CCCO)C(=O)Cc1noc(CN2C(=O)C(=O)N(CC3CC3)C2=O)n1 [Example 4]
a: 16

q: Using known records, supply MIC for COc1ccccc1N(CCOCCO)C(=O)Cc1noc(CN2C(=O)C(=O)N(CC3CC3)C2=O)n1 [Example 5]
a: 32

q: Using known records, supply MIC for COc1ccccc1N(C)C(=O)Cc1noc(CN2C(=O)C(=O)N(CC3CC3)C2=O)n1 [Example 26]
a: 4

q: Using known records, supply MIC for COc1ccccc1N(CCO)C(=O)Cc1noc(CN2C(=O)C(=O)N(CC3CC3)C2=O)n1 [Example 1]
a: 4

q: Using known records, supply MIC for CCN(C(=O)Cc1noc(CN2C(=O)C(=O)N(CC3CC3)C2=O)n1)c1ccccc1OC [Example 24]
a: 8
